test: Stability in mouse plasma; type: in vitro ADME; settings: read-out: Mouse Plasma t1/2
Below: a set of entries, each annotated with reported half-life at 1 µM.

Compound: CC(C)C(OC(=O)c1ccccc1)[n+]1cccc(CNC(=O)Nc2ccc(OCCc3ccccc3-c3ccccc3)cc2)c1 (stereo not drawn) [Example 43]
Inequality Sign: =
half-life at 1 µM [min]: 29.8

Compound: CC(C)C(OC(=O)C(C)(C)C)[n+]1cccc(CNC(=O)Nc2ccc(OCCc3ccccc3-c3ccccc3)cc2)c1 (stereo not drawn) [Example 40]
Inequality Sign: =
half-life at 1 µM [min]: 53.5

Compound: CC(OC(=O)C(C)(C)C)[n+]1cccc(CNC(=O)Nc2ccc(OCCc3ccccc3-c3ccccc3)cc2)c1 (stereo not drawn) [Example 39]
Inequality Sign: =
half-life at 1 µM [min]: 27

Compound: CC(=O)OC[C@@H]1CCCN1C(=O)OC[n+]1cccc(CNC(=O)Nc2ccc(OCCc3ccccc3-c3ccccc3)cc2)c1 [Example 45]
Inequality Sign: >
half-life at 1 µM [min]: 5

Compound: CC(=O)OC(C(C)C)[n+]1cccc(CNC(=O)Nc2ccc(OCCc3ccccc3-c3ccccc3)cc2)c1 (stereo not drawn) [Example 38]
Inequality Sign: >
half-life at 1 µM [min]: 5

Compound: CCCC(=O)OC[n+]1cccc(CNC(=O)Nc2ccc(OCCc3ccccc3-c3ccccc3)cc2)c1 [Example 41]
Inequality Sign: <
half-life at 1 µM [min]: 5

---

experiment: Experiment 1: hepatic portal vein samples of rats after oral Example Compound 35; assay type: in vivo, female Sprague-Dawley rats; settings: female, Sprague-Dawley, rat, plasma (hepatic portal vein), po, 20 mg/kg, portal vein, 8 hr after oral Example Compound 35 20 mg/kg; read-out: Median [Par. Cmp. A]

Molecule: O=C(NCc1cccnc1)Nc1ccc(OCCc2ccccc2-c2ccccc2)cc1 [Parent Compound A]
Readout Units: ng/mL
concentration at 8 h: 41

---

Below: a set of entries, each annotated with reported half-life at 1 µM.
experiment: Stability in mouse liver microsomal preparations; type: in vitro ADME; details: liver microsomes, with and without 1 mM NADPH (not said which), read-out: Mouse Liver Microsomes t1/2
Endpoint: half-life at 1 µM

Compound: CC(=O)OC[C@@H]1CCCN1C(=O)OC[n+]1cccc(CNC(=O)Nc2ccc(OCCc3ccccc3-c3ccccc3)cc2)c1
Endpoint: half-life at 1 µM
Result: > 5 min

Compound: CC(=O)OC[n+]1cccc(CNC(=O)Nc2ccc(OCCc3ccccc3-c3ccccc3)cc2)c1
Endpoint: half-life at 1 µM
Result: < 5 min

Compound: O=C(NCc1ccc[n+](COC(=O)c2ccccc2)c1)Nc1ccc(OCCc2ccccc2-c2ccccc2)cc1
Endpoint: half-life at 1 µM
Result: < 5 min

Compound: CC(OC(=O)C(C)(C)C)[n+]1cccc(CNC(=O)Nc2ccc(OCCc3ccccc3-c3ccccc3)cc2)c1 (stereo not shown)
Endpoint: half-life at 1 µM
Result: 113 min

Compound: CC(C)C(=O)OC[n+]1cccc(CNC(=O)Nc2ccc(OCCc3ccccc3-c3ccccc3)cc2)c1
Endpoint: half-life at 1 µM
Result: < 5 min

Compound: CCCC(=O)OC[n+]1cccc(CNC(=O)Nc2ccc(OCCc3ccccc3-c3ccccc3)cc2)c1
Endpoint: half-life at 1 µM
Result: < 5 min

Compound: CC(C)C(OC(=O)c1ccccc1)[n+]1cccc(CNC(=O)Nc2ccc(OCCc3ccccc3-c3ccccc3)cc2)c1 (stereo not shown)
Endpoint: half-life at 1 µM
Result: 59.1 min
